The reported measurements were obtained from the supplement of paper PMC10567573.

B1: RHOBTB3 (parent)
chain: KVVEAHKIVLCAVSHVFMLLFNVK

Variants of: B1
ASSAY_NOTES: protein stability index of a GFP-peptide fusion (GPS, HEK-293T) (PSI 1-6); higher = more stable;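 note: lentivirally expressed fusions sorted by FACS into six bins by GFP to DsRed ratio, PSI derived from sequencing read proportions per bin multiplied by bin number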
EXPERIMENTAL_SETUP: c terminus: a fixed tail appended
Consider the following variants; for each one, report its protein stability index.
Reply briefly: the number, and no unit.

Form: variant = K1C ; protein stability index = 3.06

Form: variant = V16A ; protein stability index = 2.97

Form: variant = A5W ; protein stability index = 3.03

Form: variant = V16W ; protein stability index = 3.09
